Answer each item with its documented ADCC reporter assay, Max RLU, CHOK1/B7-H3 cells.
- system under test: T1, B7-H3 on CHO-K1 cells stably transfected with B7-H3 (GenScript #M00536) (UniProt Q5ZPR3 29-534, limits assumed)
- T1 sequence (looked up): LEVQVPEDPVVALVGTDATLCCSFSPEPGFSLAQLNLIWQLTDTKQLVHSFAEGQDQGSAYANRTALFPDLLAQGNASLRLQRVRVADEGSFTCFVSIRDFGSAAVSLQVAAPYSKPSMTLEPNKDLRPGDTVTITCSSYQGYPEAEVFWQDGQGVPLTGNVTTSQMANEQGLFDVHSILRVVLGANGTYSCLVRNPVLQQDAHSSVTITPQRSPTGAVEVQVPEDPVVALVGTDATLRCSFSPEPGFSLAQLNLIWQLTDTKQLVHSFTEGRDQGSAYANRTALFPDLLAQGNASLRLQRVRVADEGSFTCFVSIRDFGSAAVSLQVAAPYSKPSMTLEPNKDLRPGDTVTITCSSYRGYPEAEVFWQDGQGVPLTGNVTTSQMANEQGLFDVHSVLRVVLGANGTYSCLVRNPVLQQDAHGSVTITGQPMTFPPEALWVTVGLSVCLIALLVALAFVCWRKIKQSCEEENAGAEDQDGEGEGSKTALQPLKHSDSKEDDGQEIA
- procedure text: cell-based or functional assay
Supply the numeric figure in RLU, leaving out any unit text.

Inquiry: Name the recorded ADCC reporter assay, Max RLU, CHOK1/B7-H3 cells of the binder listed here: 40633p1.1.G7 IgG (antibody, V domains shown) VH: EVQLLESGGGLVQPGGSLRLSCAASGFTFSGSAMNWVRQAPGKGLEWVSAINSGGTTIYYADSVKGRFTVSRDNSKNTLYLQMNSLRAEDTAVYYCVKLDFYYGMDVWGEGTTVTVSS VL: QSVVTQPPSASGTPGQRVTVSCSGSSSNVGSKYVQWYQQLPGTAPKLLIYATDRRPSGVPDRFSGSKSGTSASLAISGLQSEDEADYYCASWDDSLNAWVFGGGTKLTVL
Reply text: 656000

Inquiry: Name the recorded ADCC reporter assay, Max RLU, CHOK1/B7-H3 cells of the binder listed here: 40633p1.2.C11 IgG (antibody, V domains shown) VH: EVQLLESGGGLVQPGGSLRLSCAASGFTFSSYWMSWVRQAPGKGLEWVAGINRNGGSTYYADSVKGRFTISRDNSENTLYLQVNSLRAEDTAVYYCARWNDYDIMDVWGQGTTVTVSS VL: QSVLTQPSSASGTPGQRVTISCSGSSSNVGRRAVNWYQQLPGTAPKLLISNSQRPSGVPDRFSGSKSGTSASLAISGLQSEDEADYYCATWDASLNSWVFGGGTKLTVL
Reply text: 94400

Inquiry: Name the recorded ADCC reporter assay, Max RLU, CHOK1/B7-H3 cells of the binder listed here: 40633p1.2.A10 IgG (antibody, V domains shown) VH: EVQLLESGGGLVQPGGSLRLSCAASGFTVSYYGMSWVRQAPGKGLEWVSVIKQDGSEEYYADSVKGRFTISRDNSKNTLYLQMNSLRAEDTAVYYCARHWNDYSNGMNVWGQGTTVTVSS VL: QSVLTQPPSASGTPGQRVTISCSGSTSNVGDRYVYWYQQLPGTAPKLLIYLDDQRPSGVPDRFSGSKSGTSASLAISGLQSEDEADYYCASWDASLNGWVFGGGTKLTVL
Reply text: 762000

The reported numbers originate from patent US20260008852A1.
